- ASSAYED TARGET: MATE2K (Homo sapiens)
- Sequence (Q86VL8 1-566 isoform Q86VL8-3): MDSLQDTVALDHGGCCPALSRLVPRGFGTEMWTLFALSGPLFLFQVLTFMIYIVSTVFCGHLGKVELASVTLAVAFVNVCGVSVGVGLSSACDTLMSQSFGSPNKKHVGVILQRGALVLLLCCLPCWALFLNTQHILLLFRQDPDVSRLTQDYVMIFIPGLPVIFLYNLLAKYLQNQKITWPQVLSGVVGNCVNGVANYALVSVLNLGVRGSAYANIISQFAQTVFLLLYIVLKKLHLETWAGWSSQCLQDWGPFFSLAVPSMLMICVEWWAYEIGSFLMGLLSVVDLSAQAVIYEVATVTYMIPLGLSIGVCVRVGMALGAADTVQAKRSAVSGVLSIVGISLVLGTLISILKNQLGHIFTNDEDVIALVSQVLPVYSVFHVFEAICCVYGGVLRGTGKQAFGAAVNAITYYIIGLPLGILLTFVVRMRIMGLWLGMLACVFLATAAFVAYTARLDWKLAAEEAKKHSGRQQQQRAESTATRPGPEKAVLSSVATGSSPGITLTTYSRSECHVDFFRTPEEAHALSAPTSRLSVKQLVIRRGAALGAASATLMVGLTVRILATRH
- ASSAY INFO: Concentration-dependent uptake (Michaelis-Menten) via MATE2K in HEK293 cells
- PARTICULARS: read-out: MATE2K KM; HEK293, 1 min, net uptake
# if value of Km reaches 40 µM, tag Fulfilled; if it stays below, tag Not fulfilled

In [3]: df
Out[3]:
                                   compound       category
0     CN[C@@H]1CCc2[nH]c3ccc(C(N)=O)cc3c2C1  Not fulfilled
1  CCN1CCCC1CNC(=O)c1cc(S(N)(=O)=O)ccc1OC (centres unmarked) [Sulpiride]  Not fulfilled
2                         NCCc1ccc(O)c(O)c1      Fulfilled

Proceed to the following item.
[ask] hey, is Km for this one >= 40 µM? C[N@+]1(CC2CC2)CC[C@]23c4c5ccc(O)c4O[C@H]2C(=O)CC[C@@]3(O)[C@H]1C5 [Methylnaltrexone]
[reply] Fulfilled

====

- ASSAYED TARGET: MATE1 (Homo sapiens)
- Sequence (Q96FL8 whole entry): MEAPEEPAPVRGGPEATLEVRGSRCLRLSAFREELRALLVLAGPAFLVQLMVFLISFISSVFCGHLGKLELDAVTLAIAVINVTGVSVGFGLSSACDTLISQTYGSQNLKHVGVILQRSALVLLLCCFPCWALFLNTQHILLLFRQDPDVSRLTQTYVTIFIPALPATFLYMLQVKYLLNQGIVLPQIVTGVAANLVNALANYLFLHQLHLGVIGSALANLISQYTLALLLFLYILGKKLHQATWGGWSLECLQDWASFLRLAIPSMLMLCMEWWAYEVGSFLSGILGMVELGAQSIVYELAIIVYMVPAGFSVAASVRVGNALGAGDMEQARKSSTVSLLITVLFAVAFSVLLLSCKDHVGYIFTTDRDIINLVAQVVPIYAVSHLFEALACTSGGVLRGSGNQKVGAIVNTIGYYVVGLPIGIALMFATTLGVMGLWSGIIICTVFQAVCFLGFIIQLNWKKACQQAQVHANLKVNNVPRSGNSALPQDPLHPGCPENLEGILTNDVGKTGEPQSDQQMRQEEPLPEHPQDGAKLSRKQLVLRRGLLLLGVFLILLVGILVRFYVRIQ
- ASSAY INFO: Concentration-dependent uptake (Michaelis-Menten) via MATE1 in HEK293 cells
- PARTICULARS: HEK293, 1 min, net uptake
Exercise: for every item that follows, state its recorded MATE1 Vmax.

Some solved cases for reference:
>>> df
                                   compound                             obs_value
0           Cc1ncc(C[n+]2csc(CCO)c2C)c(N)n1     599 pmol × mg protein^–1 × min^–1
1  CN(C)CCc1c[nH]c2ccc(C[C@H]3COC(=O)N3)cc12 [Zolmitriptan]    2992 pmol × mg protein^–1 × min^–1
2                            NCCc1ccc(O)cc1    5948 pmol × mg protein^–1 × min^–1
3                    CNC[C@H](O)c1cccc(O)c1  11,611 pmol × mg protein^–1 × min^–1
4         [H]/N=C(/N)N/C(=N/[H])NCCc1ccccc1    8451 pmol × mg protein^–1 × min^–1
5  C[N@+]1(CC2CC2)CC[C@]23c4c5ccc(O)c4O[C@H]2C(=O)CC[C@@]3(O)[C@H]1C5 [Methylnaltrexone]    55.8 pmol × mg protein^–1 × min^–1
6  NC[C@H](O)c1ccc(O)c(O)c1 [Norepinephrine]  18,720 pmol × mg protein^–1 × min^–1
7     CN[C@@H]1CCc2[nH]c3ccc(C(N)=O)cc3c2C1    4568 pmol × mg protein^–1 × min^–1
8  CCN1CCCC1CNC(=O)c1cc(S(=O)(=O)CC)c(N)cc1OC (stereo not shown) [Amisulpride]     238 pmol × mg protein^–1 × min^–1

Shift focus to the following entry.
[ask] // lookup MATE1 Vmax for CC(=O)OC(C)C[N+](C)(C)C (stereo not shown)
[reply] 17,843 pmol × mg protein^–1 × min^–1

====

- ASSAYED TARGET: OCT1 (Homo sapiens)
- Sequence (O15245 1-554): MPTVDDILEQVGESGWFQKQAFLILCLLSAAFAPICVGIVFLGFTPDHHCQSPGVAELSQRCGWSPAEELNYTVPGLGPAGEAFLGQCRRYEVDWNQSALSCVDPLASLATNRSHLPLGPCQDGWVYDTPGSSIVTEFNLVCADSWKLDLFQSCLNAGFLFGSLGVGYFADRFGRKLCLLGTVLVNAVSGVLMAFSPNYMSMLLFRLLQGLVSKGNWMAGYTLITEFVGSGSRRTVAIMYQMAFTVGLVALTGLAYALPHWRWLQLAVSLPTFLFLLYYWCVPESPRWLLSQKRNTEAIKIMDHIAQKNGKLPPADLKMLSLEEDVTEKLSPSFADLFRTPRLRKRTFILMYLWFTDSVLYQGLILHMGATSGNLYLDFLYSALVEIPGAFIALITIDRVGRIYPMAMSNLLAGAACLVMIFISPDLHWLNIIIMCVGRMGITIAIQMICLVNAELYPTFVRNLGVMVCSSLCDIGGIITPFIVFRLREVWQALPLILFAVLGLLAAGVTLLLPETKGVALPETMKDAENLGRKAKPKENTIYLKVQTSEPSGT
- ASSAY INFO: Uptake in OCT1-overexpressing HEK293 cells (substrate yes/no)
- Type: cell-based
- Set-up: key: 1 = substrate; 0 = no substrate
- PARTICULARS: Table S4
QUANTITY KIND: OCT1 substrate*
Answers are plain numbers.

Some solved cases for reference:
>>> print(df.to_string())
                                   compound    quantity_kind  obs_value
0  CN(C)CCc1c[nH]c2ccc(C[C@H]3COC(=O)N3)cc12 [Zolmitriptan]  OCT1 substrate*          1
1  CN(C)CCOC1=Cc2ccccc2Sc2ccc(Cl)cc21 [Zotepin]  OCT1 substrate*          0
2  CN(C)CCc1c[nH]c2ccc(C[C@H]3COC(=O)N3)cc12 [Zolmitriptan (S), Zolmitriptan]  OCT1 substrate*          1
3  CN(C)CCc1c[nH]c2ccc(C[C@H]3COC(=O)N3)cc12 [Zolmitriptan (R), Zolmitriptan]  OCT1 substrate*          1

Shift focus to the following entry.
[ask] // lookup OCT1 substrate* for O=C1Cc2cc(CCN3CCN(c4nsc5ccccc45)CC3)c(Cl)cc2N1 [Ziprasidone]
[reply] 0

====

- ASSAYED TARGET: MATE2K (Homo sapiens)
- ASSAY INFO: Uptake ratio in MATE2K-overexpressing HEK293 cells vs empty vector (2.5 μM, 1 min, HPLC-MS/MS)
- Type: cell-based
Exercise: for every item that follows, state its recorded MATE2K ratio.
Answers are plain numbers.

Some solved cases for reference:
In [3]: df
Out[3]:
                                   compound  obs_value
0  c1c2c(cc3c1OCO3)-c1cc3ccc4c(c3c[n+]1CC2)OCO4       6.48
1                              Nc1ccc(N)cc1       1.07
2                     CC(C)c1cccc(C(C)C)c1O       0.80
3  C[C@@H]1Cc2c(Cl)cc(C(=O)N[C@@H](Cc3ccccc3)C(=O)O)c(O)c2C(=O)O1       1.28
4                          COc1cc(CCN)ccc1O       1.39

Quick request: MATE2K ratio for each listed item, please.
1. C1CCN2C[C@@H]3C[C@@H](CN4CCCC[C@@H]34)[C@H]2C1 [Sparteine (+), Sparteine]
2. CNCC/C=C1/c2ccccc2CC(O)c2ccccc21 (stereo not shown)
3. CN(C)CCc1ccc(O)cc1
4. CCCCCCCN
5. CNC(C)Cc1ccc2c(c1)OCO2 (stereo not shown)
6. NC(N)=NCCCC[C@H](N)C(=O)O

[reply]
1: 1.31; 2: 1.14; 3: 1.20; 4: 1.60; 5: 1.18; 6: 0.97

Quick request: MATE2K ratio for each listed item, please.
1. CC(C)(C)NCC(O)c1cc(Cl)c(N)c(Cl)c1 (stereo not shown)
2. COc1ccc(CC(C)N)cc1 (stereo not shown)
3. CCCCC[C@H](O)/C=C/[C@H]1[C@H](O)CC(=O)[C@@H]1C/C=C\CCCC(=O)O [Prostaglandin E2]
4. C[n+]1ccc(-c2ccccc2)cc1
5. COc1ccc2c3c1O[C@H]1C[C@@H](O)C=C[C@@]31CCN(C)C2
6. CCC(Cc1ccc2c(c1)OCO2)NC (stereo not shown)

[reply]
1: 1.18; 2: 1.25; 3: 1.21; 4: 9.05; 5: 1.23; 6: 1.24

====

- ASSAYED TARGET: MATE2K (Homo sapiens)
- ASSAY INFO: Uptake ratio in MATE2K-overexpressing HEK293 cells vs empty vector (2.5 μM, 1 min, HPLC-MS/MS)
- Format: cell-based
- PARTICULARS: fold uptake over empty vector, 2.5 μM, 1 min
Quick rule for you: MATE2K ratio under 7 gets Fulfilled, anything else gets Not fulfilled.

Past entries and their recorded results:
>>> print(df.to_string())
                                   molecule       category
0  CC(C)(C)NCC(O)COc1cccc2c1CCC(=O)N2 (stereo not drawn)      Fulfilled
1                               OCCc1ccccc1      Fulfilled
2  Cn1c(=O)c2c(ncn2CCCNCC(O)c2cc(O)cc(O)c2)n(C)c1=O (stereo not drawn)  Not fulfilled

[ask] Say whether its MATE2K ratio is strictly beneath 7. Entry: Cc1ccc(C23CNCC2C3)cc1 (stereo not drawn)
[reply] Fulfilled

[ask] Lookup Br.Cc1ncc(C[n+]2cccc(CCO)c2C)c(N)n1.[Br-]
[reply] Not fulfilled

[ask] Lookup Nc1ccc(S(=O)(=O)c2ccc(N)cc2)cc1
[reply] Fulfilled
